Hey, just so you know, these numbers are from PubChem BioAssay (NCI).

test system: CAKI-1 renal; assay: NCI tumour cell line growth inhibition, 48 h
observable: GI50

Which GI50 is listed for S=C1Nc2ccc(Cl)cc2C2(c3ccccc3)N3CCN=C3NN12 (stereo unspecified) ? 48.8 µM

Which GI50 is listed for COc1ccc(Cl)cc1NC(=O)C(Br)C(Br)C(=O)O (stereo unspecified) ? 16.7 µM

Which GI50 is listed for c1ccc(-n2nnnc2-c2cccc3ccccc23)cc1 ? 0.465 µM

Which GI50 is listed for COC(=O)[C@]12CC[C@@H](C)[C@H](C)[C@@H]1C1=CC[C@@H]3[C@@]4(C)C=C(O)C(=O)[C@@]5(C)COC(=C54)C[C@@]3(C)[C@]1(C)CC2 ? 9.36 µM

Which GI50 is listed for O=C(O)c1ccc(N/C=C2\C(=O)c3ccccc3OC2O)cc1O (stereo unspecified) ? 10.8 µg/mL

Which GI50 is listed for COc1ccccc1C#Cc1ccccc1C#CCCCCCC#Cc1ccccc1C#Cc1ccccc1OC ? 41.2 µM

Which GI50 is listed for O=C(N/N=C/c1ccc([N+](=O)[O-])cc1)c1ccc2nc(-c3ccc(Cl)cc3)[nH]c2c1 ? 3.49 µM

Which GI50 is listed for CSc1ccc2c3c(n(C[C@H](O)CO)c(=O)c2c1)-c1ccccc1C3=O ? 1.11 µM

Which GI50 is listed for CC(=O)OCC1OC(OC2CC3C(C)(C)C(O)CC[C@]3(C)C3CCC45CC4(CC[C@H]5C(C)CC(O)C4OC4(C)C)[C@]23C)C(O)C(O)C1O (stereo partly specified) ? 19.6 µM

Which GI50 is listed for Cn1cc(-c2cnc3ccc4ccc(CS(=O)(=O)NCc5ccccn5)cc4c(=O)c3c2)cn1 ? 14.2 µM

Which GI50 is listed for C#Cc1c(C(N)=O)ncn1C1OC(COP(=O)(OCc2ccc([N+](=O)[O-])o2)N(C)CCCCCl)C(O)C1O (stereo unspecified) ? 47.9 µM

Which GI50 is listed for COc1cc(/C=C2\CN(C)C/C(=C\c3cc(CN4CCCCC4)c(O)c(OC)c3)C2=O)cc(CN2CCCCC2)c1O ? 4.62 µM

Which GI50 is listed for CCCCCCCCCCCCSC(=N)N ? 3.79 µM

Which GI50 is listed for C=CCC1(O)c2cccc(NCCO)c2C(=O)c2c(NCCO)cccc21 ? > 100 µM

Which GI50 is listed for O=C(Cc1cccc(OC(F)(F)F)c1)Nc1ccc(CCCCc2nnc(NC(=O)Cc3ccccn3)s2)nn1 ? 4.81 µM

Which GI50 is listed for O=[Se](=O)c1ccccc1.O=[Se](=O)c1ccccc1.[Cu] ? 22.8 µM

* * *

Kindly state log10 TGI for each of the entries shown.
system: SF-295 CNS; assay: NCI tumour cell line growth inhibition, 48 h
Record value = log10 of TGI given in µM.

Which log10 TGI is listed for O=C(N/N=C/c1ccccc1O)C(=O)Nc1ccc(F)cc1 ? 1.19

Which log10 TGI is listed for COc1ccc2nc3cc(Cl)ccc3c(NCCCNCCC(C)O)c2c1 (stereo unspecified) ? 0.21

Which log10 TGI is listed for O=C1C(Br)=CC2(C=C1Br)CCNC1=C2C(=O)c2cccnc2C1=O ? 1.32

Which log10 TGI is listed for CSc1ccc2c3c(n(C[C@H](O)CO)c(=O)c2c1)-c1ccccc1C3=O ? 1.08

Which log10 TGI is listed for C/C(=N\N=C(/[Se])N1CC2CCC(CC2)C1)c1ccccn1 ? 0.35
